Form field: ED50 (one value per entry).
System: apomorphine-induced emesis
experiment: apomorphine-induced emesis in dogs (anti-emetic effect)
Format: in vivo
measurementParameters: Canis lupus familiaris, sc; Table 7; dogs, subcutaneous; as free base; read-out: Anti-Apomorphine Effect ED50
# number only, unit mg/kg dropped from output

- molecule: "Nc1ccc(C(=O)NC2CCN(C3CCCCC3)C2)cc1 (stereo not shown)"
  testSystem: "apomorphine-induced emesis"
  unitAbbrev: "mg/kg"
  ED50: 1.7
- molecule: "CN(C(=O)c1ccc([N+](=O)[O-])cc1)C1CCN(C2CCCCC2)C1 (stereo not shown)"
  testSystem: "apomorphine-induced emesis"
  unitAbbrev: "mg/kg"
  ED50: 10
- molecule: "CN(C(=O)c1ccc(N)cc1)C1CCN(C2CCCCC2)C1 (stereo not shown)"
  testSystem: "apomorphine-induced emesis"
  unitAbbrev: "mg/kg"
  ED50: 0.27

Here is another molecule to look at.
Enquiry: Item: O=C(NC1CCN(C2CCCCC2)C1)c1ccc([N+](=O)[O-])cc1 (stereo not shown) Test system: apomorphine-induced emesis Read-out: ED50 Value: ?
Return: 1.8

FYI, the data here is from patent US3963745A.
